Listed below: Ki values for each entry.
ASSAYED TARGET: T1, human plasma Kallikrein (human, UniProt P03952 20-638)
T1 construct: also called hPK; human PK
T1 sequence (P03952 20-638 limits assumed): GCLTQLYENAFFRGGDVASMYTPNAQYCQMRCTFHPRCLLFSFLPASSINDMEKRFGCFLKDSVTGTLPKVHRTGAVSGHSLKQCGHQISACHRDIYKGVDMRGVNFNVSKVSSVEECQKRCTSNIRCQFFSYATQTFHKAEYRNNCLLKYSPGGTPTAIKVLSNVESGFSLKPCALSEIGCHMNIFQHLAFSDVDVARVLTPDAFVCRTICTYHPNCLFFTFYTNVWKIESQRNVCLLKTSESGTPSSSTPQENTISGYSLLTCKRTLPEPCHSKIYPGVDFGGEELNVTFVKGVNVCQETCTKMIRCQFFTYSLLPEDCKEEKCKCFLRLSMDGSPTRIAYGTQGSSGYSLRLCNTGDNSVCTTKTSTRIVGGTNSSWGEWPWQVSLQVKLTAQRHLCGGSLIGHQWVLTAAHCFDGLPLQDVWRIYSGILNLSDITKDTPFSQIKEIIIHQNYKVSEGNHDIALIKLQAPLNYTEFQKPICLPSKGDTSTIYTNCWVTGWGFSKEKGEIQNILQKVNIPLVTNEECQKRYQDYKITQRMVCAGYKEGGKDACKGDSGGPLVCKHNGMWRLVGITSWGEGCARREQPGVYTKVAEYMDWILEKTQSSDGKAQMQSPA
MEASUREMENT DESCRIPTION: enzyme inhibition
Numbered stars: 1 amine (or outer) side, 2 acyl side, 3 side chain; on linkers, the order of the positions; unused ones are H or OH. Bridge positions count the residues as written; N and C are the ends. TBMB = c1c(C[*:1])cc(C[*:3])cc1C[*:2]

Notebook: Ac-CSAAARCLHQDLC-NH2 (linker 1-7-13 via TBMB; SMILES CC(=O)N[C@H]1CSCc2cc3cc(c2)CSC[C@H](NC(=O)[C@H](CCCNC(=N)N)NC(=O)[C@H](C)NC(=O)[C@H](C)NC(=O)[C@H](C)NC(=O)[C@H](CO)NC1=O)C(=O)N[C@@H](CC(C)C)C(=O)N[C@@H](Cc1c[nH]cn1)C(=O)N[C@@H](CCC(N)=O)C(=O)N[C@@H](CC(=O)O)C(=O)N[C@@H](CC(C)C)C(=O)N[C@H](C(N)=O)CSC3) [Ac-(06-34-18) A2A3] , Ki read as 18.5 µM

Per the record, Ac-CPSAWRCLHQDLC-NH2 (linker 1-7-13 via TBMB; SMILES CC(=O)N[C@H]1CSCc2cc3cc(c2)CSC[C@H](NC(=O)[C@H](CCCNC(=N)N)NC(=O)[C@H](Cc2c[nH]c4ccccc24)NC(=O)[C@H](C)NC(=O)[C@H](CO)NC(=O)[C@@H]2CCCN2C1=O)C(=O)N[C@@H](CC(C)C)C(=O)N[C@@H](Cc1c[nH]cn1)C(=O)N[C@@H](CCC(N)=O)C(=O)N[C@@H](CC(=O)O)C(=O)N[C@@H](CC(C)C)C(=O)N[C@H](C(N)=O)CSC3) [Ac-(06-34-18) Scram1] has Ki of 1.09 µM

So, Ac-CAPWSRCLHQDLC-NH2 (linker 1-7-13 via TBMB; SMILES CC(=O)N[C@H]1CSCc2cc3cc(c2)CSC[C@H](NC(=O)[C@H](CCCNC(=N)N)NC(=O)[C@H](CO)NC(=O)[C@H](Cc2c[nH]c4ccccc24)NC(=O)[C@@H]2CCCN2C(=O)[C@H](C)NC1=O)C(=O)N[C@@H](CC(C)C)C(=O)N[C@@H](Cc1c[nH]cn1)C(=O)N[C@@H](CCC(N)=O)C(=O)N[C@@H](CC(=O)O)C(=O)N[C@@H](CC(C)C)C(=O)N[C@H](C(N)=O)CSC3) [Ac-(06-34-18) Scram3] ? Its Ki was 1.89 µM

The value of Ki measured for the binder Ac-CWASPRCLHQDLC-NH2 (linker 1-7-13 via TBMB; SMILES CC(=O)N[C@H]1CSCc2cc3cc(c2)CSC[C@H](NC(=O)[C@H](CCCNC(=N)N)NC(=O)[C@@H]2CCCN2C(=O)[C@H](CO)NC(=O)[C@H](C)NC(=O)[C@H](Cc2c[nH]c4ccccc24)NC1=O)C(=O)N[C@@H](CC(C)C)C(=O)N[C@@H](Cc1c[nH]cn1)C(=O)N[C@@H](CCC(N)=O)C(=O)N[C@@H](CC(=O)O)C(=O)N[C@@H](CC(C)C)C(=O)N[C@H](C(N)=O)CSC3) [Ac-(06-34-18) Scram2] turned out to be 11.4 µM

So for Ac-CSAQARCLHQDLC-NH2 (linker 1-7-13 via TBMB; SMILES CC(=O)N[C@H]1CSCc2cc3cc(c2)CSC[C@H](NC(=O)[C@H](CCCNC(=N)N)NC(=O)[C@H](C)NC(=O)[C@H](CCC(N)=O)NC(=O)[C@H](C)NC(=O)[C@H](CO)NC1=O)C(=O)N[C@@H](CC(C)C)C(=O)N[C@@H](Cc1c[nH]cn1)C(=O)N[C@@H](CCC(N)=O)C(=O)N[C@@H](CC(=O)O)C(=O)N[C@@H](CC(C)C)C(=O)N[C@H](C(N)=O)CSC3) [Ac-(06-34-18) A2Q3] , the logged Ki turned out to be 15.8 µM

Entry source: patent US20180362585A1
